Biological target: UniProtKB P10696
Assay: PLAP enzyme activity modulators, SAR follow-up, selectivity assay for human IAP activator project, biochemical (AID 493126); call rule not given here
Details: purified PLAP enzyme, counter-screen
Could you please pick one outcome from this set? active, inactive

Please review the following examples before continuing.
molecule=Cc1cc(C(=O)N/N=C\c2cc(C(C)(C)C)ccc2O)n[nH]1 study_system="UniProtKB P10696" cat=active
molecule=CC(=O)Nc1cccc(C(=O)NNC(=O)c2n[nH]c(=O)c3ccccc23)c1 study_system="UniProtKB P10696" cat=active
molecule="O=C1Nc2ccc(Br)cc2C12NNc1ccccc1O2 (stereo not drawn)" study_system="UniProtKB P10696" cat=active

What did this assay record as the result for `O=C(N/N=C/c1c(O)ccc2ccccc12)c1cc(-c2cccs2)[nH]n1` ?
active

Now the molecule `O=C(NC(=S)NNC(=O)c1ccccc1O)c1ccc(F)cc1`
active

###

Target: Alkaline phosphatase, germ cell type (Homo sapiens)
Assay: PLAP enzyme activity modulators, SAR follow-up, selectivity assay for human IAP activator project, biochemical (AID 493126)
Settings: purified PLAP enzyme, counter-screen
Calls of active or inactive are those of the source. How the calls were made is not given here.
Could you please pick one outcome from this set? active, inactive

Please review the following examples before continuing.
molecule=O=C(NN=Cc1ccc(O)cc1O)C(=O)NN=Cc1ccc(O)cc1O cat=inactive
molecule=COc1ccc(-c2csc(Nc3cccc4ccccc34)n2)cc1F cat=inactive
molecule="CC1C(=O)NN=C1C(=O)NN=Cc1ccc(O)cc1O (stereo not drawn)" cat=active
molecule=CCN(CC)c1ccc(/C=N/NC(=O)C(=O)N/N=C/c2ccc(N(CC)CC)cc2O)c(O)c1 cat=inactive
molecule=COc1cccc(C=NNC(=O)C(=O)NN=Cc2cccc(OC)c2OC)c1OC cat=active
molecule=Cc1ccc(O)c(C=NNC(=O)c2[nH]ncc2Br)c1 cat=active
molecule=CN(C)c1ccc(/C=N/NC(=O)C(=O)N/N=C/c2ccc(N(C)C)cc2)cc1 cat=inactive
molecule=O=C(N/N=C\c1ccc2c(c1)OCO2)C(=O)N/N=C/c1ccc2c(c1)OCO2 cat=inactive
molecule=C/C(=N\NC(=O)c1[nH]nc2c1CCc1ccccc1-2)c1ccccc1O cat=active
molecule=O=C(CCN1C(=O)/C(=C/c2ccccc2Cl)SC1=S)NNC(=O)c1ccccc1O cat=active

What did this assay record as the result for `CC(=NNC(=O)C(=O)NN=C(C)c1cccc(O)c1)c1cccc(O)c1` ?
inactive

Now the molecule `O=C(N/N=C/c1cc(Br)ccc1O)C(=O)N/N=C/c1cc(Br)ccc1O`
inactive

Now the molecule `Cc1ccc(-c2cc(C(=O)NN=Cc3ccccc3O)n[nH]2)o1`
active

###

Molecular target: Alkaline phosphatase, germ cell type (Homo sapiens)
Assay: PLAP enzyme activity modulators, SAR follow-up, selectivity assay for human IAP activator project, biochemical (AID 493126)
Settings: purified PLAP enzyme, counter-screen
The source made the active and inactive calls. No rule for the calls is given here.
Could you please pick one outcome from this set? label 1 = active, label 0 = inactive

Please review the following examples before continuing.
compound=COc1cc(OC)c(OC)cc1/C=N/NC(=O)C(=O)N/N=C/c1cc(OC)c(OC)cc1OC cat="label 0"
compound=O=C(N/N=C/c1c(O)ccc2ccccc12)C(=O)N/N=C/c1c(O)ccc2ccccc12 cat="label 0"
compound=COc1ccc(/C=N/NC(=O)C(=O)N/N=C/c2ccc(OC)c(OC)c2)cc1OC cat="label 0"
compound=CCOc1cccc(C=NNC(=O)c2cc(C3CC3)[nH]n2)c1O cat="label 1"
compound=O=C(N/N=C/c1ccccc1O)c1n[nH]c2c1CCC2 cat="label 1"
compound=CC(=O)Nc1ccc(/C=N/NC(=O)C(=O)N/N=C/c2ccc(NC(C)=O)cc2)cc1 cat="label 0"
compound=Cc1cc(C(=O)NN=Cc2cc(Cl)cc([N+](=O)[O-])c2O)n[nH]1 cat="label 0"
compound=C/C(=N\NC(=O)c1cc(C)[nH]n1)c1ccc2ccccc2c1O cat="label 1"
compound=O=C(NN=Cc1c(O)ccc2ccccc12)c1[nH]ncc1Br cat="label 0"
compound=COc1cccc(C=NNC(=O)C(=O)NN=Cc2cccc(OC)c2O)c1O cat="label 1"

What did this assay record as the result for `O=C(N/N=C/c1ccc(O)cc1)C(=O)N/N=C/c1ccc(O)cc1` ?
label 0

Now the compound `COc1cccc(C=NNC(=O)c2[nH]nc3c2CCc2ccccc2-3)c1O`
label 1

Now the compound COc1cccc(C=NNC(=O)C2=NNC(=O)C2C)c1O (stereo not drawn)
label 1

Now the compound `COc1ccc(-c2cc(C(=O)NN=Cc3c(O)ccc4ccccc34)[nH]n2)cc1`
label 0

Now the compound OC(c1nc2ccc(F)cc2[nH]1)C(O)c1nc2ccc(F)cc2[nH]1 (stereo not drawn)
label 1

Now the compound `O=C(N/N=C/c1ccccc1C(=O)O)C(=O)N/N=C/c1ccccc1C(=O)O`
label 1

Now the compound `COc1ccc(OC)c(/C=N/NC(=O)C(=O)N/N=C/c2cc(OC)ccc2OC)c1`
label 1

Now the compound `Cn1cccc1-c1cc(C(=O)NN=Cc2cc(Br)ccc2O)[nH]n1`
label 1

###

Target: Alkaline phosphatase, germ cell type (Homo sapiens) (UniProt P10696)
Sequence (P10696 whole entry, looked up): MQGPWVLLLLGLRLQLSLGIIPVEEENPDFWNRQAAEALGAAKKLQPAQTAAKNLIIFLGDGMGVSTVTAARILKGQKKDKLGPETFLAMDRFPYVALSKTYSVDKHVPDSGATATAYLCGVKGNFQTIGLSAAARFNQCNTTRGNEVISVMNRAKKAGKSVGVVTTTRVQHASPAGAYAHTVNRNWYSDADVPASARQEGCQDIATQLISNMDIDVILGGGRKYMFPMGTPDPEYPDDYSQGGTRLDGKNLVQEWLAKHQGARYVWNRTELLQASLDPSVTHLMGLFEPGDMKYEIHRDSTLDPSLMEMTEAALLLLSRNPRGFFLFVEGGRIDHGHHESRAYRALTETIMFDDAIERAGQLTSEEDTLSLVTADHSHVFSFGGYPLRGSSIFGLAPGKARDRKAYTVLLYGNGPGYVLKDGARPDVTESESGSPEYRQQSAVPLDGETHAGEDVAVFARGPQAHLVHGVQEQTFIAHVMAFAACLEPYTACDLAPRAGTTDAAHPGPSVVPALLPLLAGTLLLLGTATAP
Assay: PLAP enzyme activity modulators, SAR follow-up, selectivity assay for human IAP activator project, biochemical (AID 493126)
Details: purified PLAP enzyme, counter-screen
The source made the active and inactive calls. No rule for the calls is given here.
Could you please pick one outcome from this set? y for active, n for inactive

Please review the following examples before continuing.
smiles_code=O=C(N/N=C/c1ccc2c(c1)OCO2)C(=O)N/N=C/c1ccc2c(c1)OCO2 cat=n
smiles_code=O=C(N/N=C/c1ccccc1O)c1cc(C2CC2)[nH]n1 cat=y
smiles_code=COC(=O)c1ccc(/C=N/NC(=O)C(=O)N/N=C/c2ccc(C(=O)OC)cc2)cc1 cat=n
smiles_code=COc1cc(/C=N\NC(=O)C(=O)N/N=C/c2cc(OC)c(O)c(OC)c2)cc(OC)c1O cat=n
smiles_code=CCOc1cc(/C=N/NC(=O)C(=O)N/N=C/c2ccc(O)c(OCC)c2)ccc1O cat=n

What did this assay record as the result for `O=C(N/N=C\c1cccc(O)c1)C(=O)N/N=C/c1cccc(O)c1` ?
y

Now the compound `CC(C)C(=O)NC(=S)Nc1ccccc1C(=O)Nc1ccccc1`
y

Now the compound `Cc1cc(C(=O)N/N=C/c2cc(Br)ccc2O)n[nH]1`
y

Now the compound `O=C(N/N=C/c1cc(Br)ccc1O)c1cc(C2CC2)[nH]n1`
y

Now the compound `CC(C)Oc1ccccc1/C=N/NC(=O)C(=O)N/N=C/c1ccccc1OC(C)C`
y

Now the compound `O=C(NNC(=S)NC(=O)c1ccccc1[N+](=O)[O-])c1ccccc1O`
y

Now the compound `COc1cc(/C=N/NC(=O)C(=O)N/N=C/c2ccc(O)c(OC)c2)ccc1O`
y

Now the compound `CCOc1cccc(C=NNC(=O)c2cc(-c3cccn3C)n[nH]2)c1O`
y

###

In this section we review reported IC50 (inhibition of PLAP activity) values for a set of compounds.
Molecular target: Alkaline phosphatase, germ cell type (Homo sapiens)
Assay: PLAP enzyme activity modulators, SAR follow-up, selectivity assay for human IAP activator project, biochemical (AID 493126)
Details: purified PLAP enzyme, counter-screen
Active and inactive are the calls of the source. The rule behind the calls is not given here.

Worked cases, answers included:
smiles_code=CCCCOc1ccc(/C=N/NC(=O)C(=O)N/N=C/c2ccc(OCCCC)cc2)cc1 result="> 100 µM (inactive)"
smiles_code=Cc1cc(C(=O)NN=Cc2cccc([N+](=O)[O-])c2O)n[nH]1 result="> 100 µM (inactive)"
smiles_code=COc1cc(OC)cc(C(=O)NNC(=O)c2nn(C)c(=O)c3ccccc23)c1 result="9.49 µM"
smiles_code=N#CCOc1ccccc1/C=N/NC(=O)C(=O)N/N=C/c1ccccc1OCC#N result="> 100 µM (inactive)"
smiles_code=COc1cccc(C=NNC(=O)c2cc(-c3cccn3C)n[nH]2)c1O result="8.67 µM"
smiles_code=O=C(NN=Cc1ccccc1)C(=O)NN=Cc1ccccc1 result="32.9 µM"

Moving on to the next compound.
IC50 (inhibition of PLAP activity) for `COc1cc(/C=N/NC(=O)C(=O)N/N=C/c2cc(OC)c(OC)c(OC)c2)cc(OC)c1OC` ?
> 100 µM (inactive)

Source: PubChem BioAssay AID493126
